target: fusion of mutant FKBP12 to nanoluciferase (Homo sapiens (Human), UniProt P62942+Q96SW2, F36V); assay: FKBP Dual Luciferase Assay (mutant FKBP12, 36V); format: cell-based; settings: FKBP 36V, 4 hours; read-out: Max Degradation (dual luciferase, %) FKBP 36V;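 also: cells exposed to rising degrader concentrations, FKBP12 fusion level read as NLuc/FLuc signal ratio, lower ratio means more degradation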
Sequence (P62942 whole entry F37V, the tested form may be a part): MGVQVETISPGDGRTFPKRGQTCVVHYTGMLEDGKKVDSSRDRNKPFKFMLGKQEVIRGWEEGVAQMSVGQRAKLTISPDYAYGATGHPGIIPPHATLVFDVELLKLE
Sequence (Q96SW2 whole entry, the tested form may be a part): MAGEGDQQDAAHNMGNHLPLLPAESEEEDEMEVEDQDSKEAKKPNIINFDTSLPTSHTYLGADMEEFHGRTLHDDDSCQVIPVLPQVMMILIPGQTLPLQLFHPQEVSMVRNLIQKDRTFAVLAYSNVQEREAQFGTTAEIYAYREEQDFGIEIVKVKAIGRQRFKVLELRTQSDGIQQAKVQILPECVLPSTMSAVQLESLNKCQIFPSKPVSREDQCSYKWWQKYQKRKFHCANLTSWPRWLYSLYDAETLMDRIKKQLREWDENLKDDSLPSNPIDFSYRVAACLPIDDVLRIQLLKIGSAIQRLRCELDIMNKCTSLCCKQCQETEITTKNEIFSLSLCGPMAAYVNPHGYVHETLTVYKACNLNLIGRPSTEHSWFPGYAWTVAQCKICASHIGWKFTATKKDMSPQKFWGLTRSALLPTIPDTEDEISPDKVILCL
Sequence (Q16531 2-1140 partner): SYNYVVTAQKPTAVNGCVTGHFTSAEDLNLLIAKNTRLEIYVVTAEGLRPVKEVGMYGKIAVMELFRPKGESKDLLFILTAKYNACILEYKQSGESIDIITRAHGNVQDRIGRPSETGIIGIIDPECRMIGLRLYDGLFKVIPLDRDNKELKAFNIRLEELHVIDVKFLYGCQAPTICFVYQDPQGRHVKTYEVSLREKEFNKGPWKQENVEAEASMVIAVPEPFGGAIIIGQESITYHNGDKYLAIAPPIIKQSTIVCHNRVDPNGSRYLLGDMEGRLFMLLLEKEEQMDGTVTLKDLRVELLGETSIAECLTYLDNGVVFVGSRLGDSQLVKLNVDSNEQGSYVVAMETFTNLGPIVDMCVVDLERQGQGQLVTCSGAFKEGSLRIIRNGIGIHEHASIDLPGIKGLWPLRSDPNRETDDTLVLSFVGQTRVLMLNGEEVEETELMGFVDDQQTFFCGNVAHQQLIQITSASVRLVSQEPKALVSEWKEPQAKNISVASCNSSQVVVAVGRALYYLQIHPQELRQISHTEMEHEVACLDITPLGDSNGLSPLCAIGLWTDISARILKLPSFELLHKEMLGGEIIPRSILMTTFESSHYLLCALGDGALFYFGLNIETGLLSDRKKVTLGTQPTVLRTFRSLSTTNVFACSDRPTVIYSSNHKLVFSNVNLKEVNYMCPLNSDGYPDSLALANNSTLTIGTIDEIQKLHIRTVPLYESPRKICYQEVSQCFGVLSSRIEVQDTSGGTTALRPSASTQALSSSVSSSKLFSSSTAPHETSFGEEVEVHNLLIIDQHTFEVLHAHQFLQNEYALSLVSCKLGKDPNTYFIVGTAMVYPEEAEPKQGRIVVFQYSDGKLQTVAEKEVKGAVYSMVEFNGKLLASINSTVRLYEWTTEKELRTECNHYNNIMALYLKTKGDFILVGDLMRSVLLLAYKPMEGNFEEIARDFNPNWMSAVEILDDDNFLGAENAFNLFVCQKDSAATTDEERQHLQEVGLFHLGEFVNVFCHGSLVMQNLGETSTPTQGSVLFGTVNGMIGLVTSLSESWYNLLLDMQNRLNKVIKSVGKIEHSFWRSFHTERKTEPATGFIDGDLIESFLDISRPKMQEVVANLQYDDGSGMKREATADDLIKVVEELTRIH
RECORDED ENDPOINT: Dmax (%)

| MOLECULE | READING |
| --- | --- |
| CC[C@H](C(=O)N1CCCC[C@H]1C(=O)OC(CCc1ccc(OC)c(OC)c1)c1cccc(OCC(=O)NCCCCCCCCCCOc2cccc3c2C(=O)N(C2CCC(=O)NC2=O)C3=O)c1)c1cc(OC)c(OC)c(OC)c1 (stereo partly shown) [dFKBP*-14] | 85 |
| CC[C@H](C(=O)N1CCCC[C@H]1C(=O)O[C@H](CCc1ccc(OC)c(OC)c1)c1cccc(OCC(=O)NCCOCCOCCOc2cccc3c2C(=O)N(C2CCC(=O)NC2=O)C3=O)c1)c1cc(OC)c(OC)c(OC)c1 (stereo partly shown) [dFKBP*-15] | 66 |
| CC[C@H](C(=O)N1CCCC[C@H]1C(=O)O[C@H](CCc1ccc(OC)c(OC)c1)c1cccc(OCC(=O)NCCCCCCNC(=O)COc2cccc3c2C(=O)N(C2CCC(=O)NC2=O)C3=O)c1)c1cc(OC)c(OC)c(OC)c1 (stereo partly shown) [c1FKBP*-8] | 75 |
| CC[C@H](C(=O)N1CCCC[C@H]1C(=O)OC(CCc1ccc(OC)c(OC)c1)c1cccc(OCC(=O)NCCCCOc2cccc3c2C(=O)N(C2CCC(=O)NC2=O)C3=O)c1)c1cc(OC)c(OC)c(OC)c1 (stereo partly shown) [dFKBP*-18] | 80 |
| CC[C@H](C(=O)N1CCCC[C@H]1C(=O)O[C@H](CCc1ccc(OC)c(OC)c1)c1cccc(OCC(=O)NCCOCCOc2cccc3c2C(=O)N(C2CCC(=O)NC2=O)C3=O)c1)c1cc(OC)c(OC)c(OC)c1 (stereo partly shown) [dFKBP*-19] | 94 |
| CC[C@H](C(=O)N1CCCC[C@H]1C(=O)OC(CCc1ccc(OC)c(OC)c1)c1cccc(OCC(=O)NCCCCCCOc2cccc3c2C(=O)N(C2CCC(=O)NC2=O)C3=O)c1)c1cc(OC)c(OC)c(OC)c1 (stereo partly shown) [dFKBP*-13] | 83 |
| CC[C@H](C(=O)N1CCCC[C@H]1C(=O)OC(CCc1ccc(OC)c(OC)c1)c1cccc(OCC(=O)NCCCCC(=O)Nc2cccc3c2C(=O)N(C2CCC(=O)NC2=O)C3=O)c1)c1cc(OC)c(OC)c(OC)c1 (stereo partly shown) [dFKBP*-16] | 38 |
| CC[C@H](C(=O)N1CCCC[C@H]1C(=O)OC(CCc1ccc(OC)c(OC)c1)c1cccc(OCC(=O)NCCCCCCCC(=O)Nc2cccc3c2C(=O)N(C2CCC(=O)NC2=O)C3=O)c1)c1cc(OC)c(OC)c(OC)c1 (stereo partly shown) [dFKBP*-20] | 75.7 |
| CC[C@H](C(=O)N1CCCC[C@H]1C(=O)OC(CCc1ccc(OC)c(OC)c1)c1cccc(OCC(=O)NCc2ccc(CNC(=O)COc3cccc4c3C(=O)N(C3CCC(=O)NC3=O)C4=O)cc2)c1)c1cc(OC)c(OC)c(OC)c1 (stereo partly shown) [dFKBP*-21] | 91 |
| CC[C@H](C(=O)N1CCCC[C@H]1C(=O)OC(CCc1ccc(OC)c(OC)c1)c1cccc(OCC(=O)NCCCOCCCNC(=O)COc2cccc3c2C(=O)N(C2CCC(=O)NC2=O)C3=O)c1)c1cc(OC)c(OC)c(OC)c1 (stereo partly shown) [dFKBP*-17] | 64 |
